All values here come from the NIST ThermoML archive (doi:10.1016/j.jct.2012.01.019).

assay-notes: activity coefficient (dimensionless); of the first substance listed, at infinite dilution; xn = mol fraction of the nth substance listed
run-parameters: 318.15 K; 101 kPa; Liquid; Chromatography; x1 = 0
Classification field: enter Fulfilled for activity coefficient values not below 0.9, Not fulfilled for values below it.

Please review the entries below; each comes with its answer.
CCCCCCCC [octane] + COCC[N+]1(C)CCCCC1.O=S(=O)([N-]S(=O)(=O)C(F)(F)F)C(F)(F)F	Fulfilled
c1ccsc1 [thiophene] + COCC[N+]1(C)CCCCC1.O=S(=O)([N-]S(=O)(=O)C(F)(F)F)C(F)(F)F	Not fulfilled
Cc1ccccc1C [1,2-dimethylbenzene] + COCC[N+]1(C)CCCCC1.O=S(=O)([N-]S(=O)(=O)C(F)(F)F)C(F)(F)F	Fulfilled
CCCCCC [hexane] + COCC[N+]1(C)CCCCC1.O=S(=O)([N-]S(=O)(=O)C(F)(F)F)C(F)(F)F	Fulfilled
CCc1ccccc1 [ethylbenzene] + COCC[N+]1(C)CCCCC1.O=S(=O)([N-]S(=O)(=O)C(F)(F)F)C(F)(F)F	Fulfilled

[ask] API: above_or_equal(metric=activity coefficient, cutoff=0.9) for item CCCC(C)=O [pentan-2-one] + COCC[N+]1(C)CCCCC1.O=S(=O)([N-]S(=O)(=O)C(F)(F)F)C(F)(F)F
[reply] Not fulfilled

[ask] Textbook exercise: given the entry C=CCCCC [hex-1-ene] + COCC[N+]1(C)CCCCC1.O=S(=O)([N-]S(=O)(=O)C(F)(F)F)C(F)(F)F , state whether its activity coefficient is greater than or equal to 0.9.
[reply] Fulfilled

[ask] Entry c1ccncc1 [pyridine] + COCC[N+]1(C)CCCCC1.O=S(=O)([N-]S(=O)(=O)C(F)(F)F)C(F)(F)F : is its activity coefficient no less than 0.9?
[reply] Not fulfilled

[ask] Please tell me: is the molecule CC(C)=O [acetone] + COCC[N+]1(C)CCCCC1.O=S(=O)([N-]S(=O)(=O)C(F)(F)F)C(F)(F)F at or over 0.9 in terms of activity coefficient?
[reply] Not fulfilled

[ask] Does activity coefficient meet or surpass 0.9 for CC1CCCCC1 [methylcyclohexane] + COCC[N+]1(C)CCCCC1.O=S(=O)([N-]S(=O)(=O)C(F)(F)F)C(F)(F)F ?
[reply] Fulfilled

[ask] Is reported activity coefficient greater than or equal to 0.9 here: CC(C)CO [2-methyl-1-propanol] + COCC[N+]1(C)CCCCC1.O=S(=O)([N-]S(=O)(=O)C(F)(F)F)C(F)(F)F
[reply] Fulfilled

[ask] # bool: activity coefficient of CCCC=O [butanal] + COCC[N+]1(C)CCCCC1.O=S(=O)([N-]S(=O)(=O)C(F)(F)F)C(F)(F)F >= 0.9
[reply] Not fulfilled

[ask] Given CCCOCCC [dipropyl ether] + COCC[N+]1(C)CCCCC1.O=S(=O)([N-]S(=O)(=O)C(F)(F)F)C(F)(F)F , state whether its activity coefficient is at least 0.9.
[reply] Fulfilled

[ask] Evaluate CC(C)CC(C)(C)C [2,2,4-trimethylpentane] + COCC[N+]1(C)CCCCC1.O=S(=O)([N-]S(=O)(=O)C(F)(F)F)C(F)(F)F : activity coefficient at minimum 0.9?
[reply] Fulfilled

====

assay-notes: activity coefficient (dimensionless); of the first substance listed, at infinite dilution; xn = mol fraction of the nth substance listed
run-parameters: 368.15 K; 101 kPa; Liquid; Chromatography; x1 = 0
value-kind: activity coefficient
Write the value as a bare number.

Record excerpt, results attached:
C=Cc1ccccc1 [styrene] + COCC[N+]1(C)CCCCC1.O=S(=O)([N-]S(=O)(=O)C(F)(F)F)C(F)(F)F	1.19
CCCCCCCC [octane] + COCC[N+]1(C)CCCCC1.O=S(=O)([N-]S(=O)(=O)C(F)(F)F)C(F)(F)F	23.8
Cc1cccc(C)c1 [1,3-dimethylbenzene] + COCC[N+]1(C)CCCCC1.O=S(=O)([N-]S(=O)(=O)C(F)(F)F)C(F)(F)F	1.86
C#CCCCCCC [1-octyne] + COCC[N+]1(C)CCCCC1.O=S(=O)([N-]S(=O)(=O)C(F)(F)F)C(F)(F)F	5.63
Cc1ccc(C)cc1 [1,4-dimethylbenzene] + COCC[N+]1(C)CCCCC1.O=S(=O)([N-]S(=O)(=O)C(F)(F)F)C(F)(F)F	1.19

[ask] Return reported activity coefficient; argument: CCCC(=O)OC [methyl butanoate] + COCC[N+]1(C)CCCCC1.O=S(=O)([N-]S(=O)(=O)C(F)(F)F)C(F)(F)F
[reply] 1.27

[ask] Request the reported activity coefficient associated with CC(C)O [propan-2-ol] + COCC[N+]1(C)CCCCC1.O=S(=O)([N-]S(=O)(=O)C(F)(F)F)C(F)(F)F
[reply] 1.28

[ask] // activity coefficient lookup, key: CCCC=O [butanal] + COCC[N+]1(C)CCCCC1.O=S(=O)([N-]S(=O)(=O)C(F)(F)F)C(F)(F)F
[reply] 0.84

[ask] For the molecule shown here, C#CCCCCC [1-heptyne] + COCC[N+]1(C)CCCCC1.O=S(=O)([N-]S(=O)(=O)C(F)(F)F)C(F)(F)F , give the reported activity coefficient.
[reply] 4.15

[ask] Field request: activity coefficient | item: CC(C)=O [acetone] + COCC[N+]1(C)CCCCC1.O=S(=O)([N-]S(=O)(=O)C(F)(F)F)C(F)(F)F
[reply] 0.507

[ask] For the molecule shown here, CCCCCCCCCC [decane] + COCC[N+]1(C)CCCCC1.O=S(=O)([N-]S(=O)(=O)C(F)(F)F)C(F)(F)F , give the reported activity coefficient.
[reply] 45

[ask] Can you share its activity coefficient? I mean this molecule: CC(C)(C)O [2-methylpropan-2-ol] + COCC[N+]1(C)CCCCC1.O=S(=O)([N-]S(=O)(=O)C(F)(F)F)C(F)(F)F
[reply] 1.34

[ask] Quick check: activity coefficient of Cc1ccccc1 [toluene] + COCC[N+]1(C)CCCCC1.O=S(=O)([N-]S(=O)(=O)C(F)(F)F)C(F)(F)F ?
[reply] 1.35

[ask] I have this molecule here, CCCCCC [hexane] + COCC[N+]1(C)CCCCC1.O=S(=O)([N-]S(=O)(=O)C(F)(F)F)C(F)(F)F , and I need its recorded activity coefficient.
[reply] 13

[ask] What measured activity coefficient goes with CCC(=O)OC [methyl propanoate] + COCC[N+]1(C)CCCCC1.O=S(=O)([N-]S(=O)(=O)C(F)(F)F)C(F)(F)F ?
[reply] 0.966

[ask] Quick one: activity coefficient of C=CCCCCCC [oct-1-ene] + COCC[N+]1(C)CCCCC1.O=S(=O)([N-]S(=O)(=O)C(F)(F)F)C(F)(F)F ?
[reply] 13.8

[ask] For the molecule c1ccsc1 [thiophene] + COCC[N+]1(C)CCCCC1.O=S(=O)([N-]S(=O)(=O)C(F)(F)F)C(F)(F)F , what activity coefficient is on record?
[reply] 0.839

[ask] Endpoint output: activity coefficient of CCC(C)O (stereo not drawn) [butan-2-ol] + COCC[N+]1(C)CCCCC1.O=S(=O)([N-]S(=O)(=O)C(F)(F)F)C(F)(F)F . Value?
[reply] 1.52
